For each of the binders below, state its ratio over background.
- STUDY_TARGET: soluble human insulin receptor (IR-Fc) (human) (UniProt P06213)
- PROTOCOL_TEXT: phage ELISA
Give the figure by itself; no unit, no explanation.

EGSGFYGYFFSLLGLQG [NNRPγ-4-A9-IR] yielded ratio over background of 1.4

ASSASGFYELLQRLAGLGLEV [20E2B-3-C4-IGFR] yielded ratio over background of 3.3

CCTTEMWMDARDDPFYHKLSELVTGG [B6Hα-1-B5-IR] yielded ratio over background of 1

GFREGNFYEWFQAQVT [E4D -4-H2-IR] yielded ratio over background of 8.2

LSCLAYSRHGIWRPSTDLGLGRSVGEGSVSTRWRGYDWFE [40F-4-D1-IGFR] yielded ratio over background of 0.3

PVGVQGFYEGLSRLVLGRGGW [20E2B-4-F8-IGFR] yielded ratio over background of 0.8

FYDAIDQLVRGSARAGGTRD [R20α-3-20E2-IR] yielded ratio over background of 3.1

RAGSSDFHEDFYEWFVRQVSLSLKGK [H2CA-2-B9-IGFR] yielded ratio over background of 1.7

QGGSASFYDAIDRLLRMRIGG [20E2A-4-F11-IGFR] yielded ratio over background of 1.3

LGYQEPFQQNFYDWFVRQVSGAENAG [H2CA-3-E8-IGFR] yielded ratio over background of 2.2

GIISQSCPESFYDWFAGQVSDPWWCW [H2CA-4-G9-IGF] yielded ratio over background of 0.6

SGAKVIWTGDSGDPFYHKLSELLQGS [B6Hα-2-C10-IR] yielded ratio over background of 1.1

GVRAMSFYDALVSVLGLGPSG [20E2B-1-A6-IGFR] yielded ratio over background of 1.1

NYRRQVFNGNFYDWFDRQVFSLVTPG [H2CA-3-D8-IGFR] yielded ratio over background of 1.8

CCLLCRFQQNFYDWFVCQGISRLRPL [H2CA-2-B4-IGFR] yielded ratio over background of 1.1

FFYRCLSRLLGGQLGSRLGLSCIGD [20C-3-E4-IGFR] yielded ratio over background of 1.3

LSSDGQFYRANLLLQGSAGR [20E2B-2-B7-IGFR] yielded ratio over background of 0.9

RLFYCGIQALGANLGYSGCV [R20 -4-20A12-IR] yielded ratio over background of 2.4

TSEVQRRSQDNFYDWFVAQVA [A6S-3-E2-IR] yielded ratio over background of 9.8

RGCNDDGGKGWSDDPFYHKLSELICGG [B6Hα-1-A2-IR] yielded ratio over background of 1

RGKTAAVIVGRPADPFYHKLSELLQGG [B6Hα-3-E8-IR] yielded ratio over background of 1.1

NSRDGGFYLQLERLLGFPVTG [20E2B-3-D4-IGFR] yielded ratio over background of 0.8

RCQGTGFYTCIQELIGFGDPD [20E2B-4-H9-IGFR] yielded ratio over background of 0.9

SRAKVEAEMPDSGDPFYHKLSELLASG [B6Hα-1-A3-IR] yielded ratio over background of 0.8

VRGFQGGTVWPGYEWLRNAA [R20β-4-E8-IR] yielded ratio over background of 3.6

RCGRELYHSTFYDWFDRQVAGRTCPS [H2CA-1-A7-IGFR] yielded ratio over background of 0.6

AVRATRFDEAFYDWFVRQISDGQGNK [H2CA-4-F6-IGFR] yielded ratio over background of 1.1

ICTGQGFYQVLCGLLRGTSAR [20E2B-2-B3-IGFR] yielded ratio over background of 0.7
